# System: HeLa
# assay name: Cytotoxicity against human HeLa cells assessed as decrease in cell viability after 48 hrs by MTT assay
# Type: functional, cell-based
Reported IC50 values for a set of compounds
Give the number; µM is assumed, so skip it.

{"compound": "Cc1n[nH]c2c1C(c1ccc(N(C)C)cc1)C(C(=O)N/N=C/c1ccc(Cl)cc1)=C(N)N2 (stereo not drawn)", "target or system": "HeLa", "endpoint label": "IC50", "endpoint unit": "µM", "value": 31.7}

Record summary for Cc1n[nH]c2c1C(c1ccc(N(C)C)cc1)C(C(=O)N/N=C1/C(=O)Nc3ccccc31)=C(N)N2 (stereo not drawn) : reported IC50 = 52.9

Record summary for Cc1n[nH]c2c1C(c1ccc(N(C)C)cc1)C(C(=O)NNc1cc([N+](=O)[O-])ccc1[N+](=O)[O-])=C(N)N2 (stereo not drawn) : reported IC50 = 8.52

Record summary for Cc1n[nH]c2c1C(c1ccc(N(C)C)cc1)C(C(=O)NN)=C(N)N2 (stereo not drawn) : reported IC50 = 51.3

Record summary for Cc1n[nH]c2c1C(c1ccc(N(C)C)cc1)C(C(=O)n1ncc(C#N)c1N)=C(N)N2 (stereo not drawn) : reported IC50 = 60.2

Record summary for Cc1n[nH]c2c1C(c1ccc(N(C)C)cc1)C(C(=O)O)=C(N)N2 (stereo not drawn) : reported IC50 = 33.6

Record summary for Cc1n[nH]c2c1C(c1ccc(N(C)C)cc1)C(C(=O)NNC(N)=S)=C(N)N2 (stereo not drawn) : reported IC50 = 6.26

Record summary for Cc1n[nH]c2c1C(c1ccc(N(C)C)cc1)C(C(N)=O)=C(N)N2 (stereo not drawn) : reported IC50 = 5.77

# credit: ChEMBL document CHEMBL4270515
